Target: Clec10a-Fc (Mus musculus, UniProt P49300)
Construct: cloning the extracellular region of mouse Clec10a into a pME18S expression vector; made in house; host or cells: HEK293T cells
Sequence (P49300 57-304 limits assumed): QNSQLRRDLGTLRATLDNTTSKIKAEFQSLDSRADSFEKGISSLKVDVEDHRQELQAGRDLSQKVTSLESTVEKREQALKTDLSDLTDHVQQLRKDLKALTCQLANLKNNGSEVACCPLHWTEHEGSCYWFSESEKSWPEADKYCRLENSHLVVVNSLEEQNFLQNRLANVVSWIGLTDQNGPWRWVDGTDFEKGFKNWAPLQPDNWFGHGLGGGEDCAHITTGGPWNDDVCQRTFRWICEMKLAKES
Assay: Sugar conjugate (glycan) microarray analysis of Clec10a-Fc (Table 7)
Assay type: binding
Conditions: glycan microarray probed with Clec10a-Fc
Kindly state Signal value, Clec10a-Fc for each of the entries shown.
Numbers only.

# batch size: 7; output Signal value, Clec10a-Fc per entry
1. CC(=O)N[C@@H]1[C@@H](O[C@@H]2O[C@H](CO)[C@@H](O)[C@H](O)[C@H]2NC(C)=O)[C@@H](O)[C@@H](CO)O[C@@H]1O [Core3]
2. CC(=O)N[C@@H]1[C@@H](O)[C@H](O[C@@H]2O[C@H](CO)[C@H](O)[C@H](O)[C@H]2O)[C@@H](CO)O[C@H]1O [LN]
3. OC[C@H]1O[C@H](O[C@@H]2[C@@H](O)[C@H](O)O[C@H](CO)[C@@H]2O)[C@H](O)[C@@H](O)[C@H]1O [Galα1-3Gal]
4. OC[C@H]1O[C@@H](O)[C@@H](O)[C@@H](O)[C@@H]1O [βMan]
5. OC[C@H]1O[C@H](O)[C@@H](O)[C@@H](O)[C@@H]1O [αMan]
6. CC(=O)N[C@H]1[C@H](O[C@@H]2[C@H](O)[C@@H](O)[C@H](O[C@H]3[C@H](O)[C@@H](O)[C@H](O)O[C@@H]3CO)O[C@@H]2CO)O[C@H](CO)[C@H](O)[C@@H]1O [Gα2]
7. CC(=O)N[C@@H]1[C@@H](O[C@@H]2O[C@H](CO)[C@H](O)[C@H](O)[C@H]2O[C@@H]2O[C@@H](C)[C@@H](O)[C@@H](O)[C@@H]2O)[C@H](O)[C@@H](CO)O[C@H]1O [H type1]

stdout:
1. 0
2. 7
3. 144
4. 0
5. 0
6. 0
7. 1

Report Signal value, Clec10a-Fc for each item below.
1. OC[C@H]1O[C@H](O[C@H]2C(O)O[C@H](CO)[C@H](O)[C@@H]2O)[C@H](O)[C@@H](O)[C@H]1O (stereo partly drawn) [Galα1-2Gal]
2. CC(=O)N[C@@H]1[C@@H](O[C@@H]2O[C@@H](C)[C@@H](O)[C@@H](O)[C@@H]2O)[C@H](O[C@@H]2O[C@H](CO)[C@H](O)[C@H](O)[C@H]2O[C@@H]2O[C@@H](C)[C@@H](O)[C@@H](O)[C@@H]2O)[C@@H](CO)O[C@H]1O [Lewis Y, reference compound]
3. CC(=O)N[C@H]1[C@@H](O[C@@H]2[C@@H](O)[C@H](O)O[C@H](CO)[C@@H]2O)O[C@H](CO)[C@H](O)[C@@H]1O [A-di]
4. CC(=O)N[C@H]1[C@H]([C@H](O)[C@H](O)CO)O[C@@](OC[C@H]2O[C@@H](O[C@H]3[C@H](O)[C@@H](O)[C@H](O)O[C@@H]3CO)[C@H](O)[C@@H](O)[C@H]2O)(C(=O)O)C[C@@H]1O [6′SL]
5. CC(=O)N[C@@H]1[C@@H](O[C@@H]2O[C@@H](C)[C@@H](O)[C@@H](O)[C@@H]2O)[C@H](O)[C@@H](CO)O[C@H]1O [Fucα3GlcNAc]

stdout:
3
0
1137
1
0

====

Biological target: Clec10a-Fc (Mus musculus)
Construct: cloning the extracellular region of mouse Clec10a into a pME18S expression vector; made in house; host or cells: HEK293T cells
Experiment: Sugar conjugate (glycan) microarray analysis of Clec10a-Fc (Table 7)
Type: binding
Conditions: glycan microarray probed with Clec10a-Fc
attribute measured: Signal value, Clec10a-Fc
Answers are plain numbers.

molecule	Signal value, Clec10a-Fc
CC(=O)N[C@@H]1[C@@H](O[C@H]2O[C@H](CO)[C@H](O)[C@H](O)[C@H]2O)[C@@H](O)[C@@H](CO)O[C@@H]1O [Core8]	0
CC(=O)N[C@@H]1[C@@H](O[C@@H]2O[C@H](CO)[C@H](O)[C@H](O[C@]3(C(=O)O)C[C@H](O)[C@@H](NC(C)=O)[C@H]([C@H](O)[C@H](O)CO)O3)[C@H]2O)[C@H](O)[C@@H](CO)O[C@H]1O [3′SiaLec]	4
OC[C@H]1O[C@H](O[C@H]2[C@H](O)[C@@H](O)[C@H](O)O[C@@H]2CO)[C@H](O)[C@@H](O)[C@@H]1O [Maltose]	0
O=C(CO)N[C@H]1[C@H]([C@H](O)[C@H](O)CO)O[C@@](O)(C(=O)O)C[C@@H]1O [Ne̊u5Gc]	0
CC(=O)N[C@@H]1[C@@H](O)[C@H](O[C@@H]2O[C@@H](C)[C@@H](O)[C@@H](O)[C@@H]2O)[C@@H](CO)O[C@H]1O [Fucα4GlcNAc]	0
CC(=O)N[C@@H]1[C@@H](O[C@@H]2O[C@H](CO)[C@H](O)[C@H](O[C@]3(C(=O)O)C[C@H](O)[C@@H](NC(C)=O)[C@H]([C@H](O)[C@H](O)CO)O3)[C@H]2O)[C@H](O[C@@H]2O[C@@H](C)[C@@H](O)[C@@H](O)[C@@H]2O)[C@@H](CO)O[C@H]1O [sLea]	0

Give Signal value, Clec10a-Fc for each listed item.
1. CC(=O)N[C@@H]1[C@@H](O)[C@H](O[C@@H]2O[C@H](CO)[C@H](O)[C@H](O)[C@H]2O)[C@@H](COS(=O)(=O)O)O[C@H]1O [[6S]LN]
2. CC(=O)N[C@@H]1[C@@H](O[C@@H]2O[C@H](CO)[C@H](O)[C@H](O)[C@H]2O)[C@H](O)[C@@H](CO)O[C@H]1O [Lec]
3. CC(=O)N[C@@H]1[C@@H](O[C@@H]2O[C@H](CO)[C@H](O)[C@H](O)[C@H]2O)[C@@H](O)[C@@H](CO[C@]2(C(=O)O)C[C@H](O)[C@@H](NC(C)=O)[C@H]([C@H](O)[C@H](O)CO)O2)O[C@@H]1O [Siaα2-6Core 1]
4. CC(=O)N[C@@H]1[C@@H](O[C@@H]2O[C@H](CO)[C@H](O)[C@H](O)[C@H]2O)[C@@H](O)[C@@H](CO[C@@H]2O[C@H](CO)[C@@H](O)[C@H](O)[C@H]2NC(C)=O)O[C@@H]1O [Core2]

stdout:
0
2414
0
4824

====

Provide the recorded Signal value, Clec10a-Fc for the entries that follow.
Target: Clec10a-Fc (Mus musculus, UniProt P49300)
Construct: cloning the extracellular region of mouse Clec10a into a pME18S expression vector; made in house; host or cells: HEK293T cells
Test: Sugar conjugate (glycan) microarray analysis of Clec10a-Fc (Table 7)
Type: binding
Conditions: glycan microarray probed with Clec10a-Fc
One number for each entry.

Worked cases, answers included:
compound	Signal value, Clec10a-Fc
CC(=O)N[C@@H]1[C@@H](O)[C@H](O[C@@H]2O[C@H](CO)[C@H](O)[C@H](O[C@H]3O[C@H](CO)[C@H](O)[C@H](O)[C@H]3O)[C@H]2O[C@@H]2O[C@@H](C)[C@@H](O)[C@@H](O)[C@@H]2O)[C@@H](CO)O[C@H]1O	0
CC(=O)N[C@@H]1[C@@H](O[C@@H]2O[C@H](CO)[C@H](O)[C@H](OS(=O)(=O)O)[C@H]2O)[C@H](O)[C@@H](CO)O[C@H]1O [[3′S]Lec]	0

Next up:
stdin: Sample O=S(=O)(O)O[C@@H]1[C@@H](O)[C@H](O)O[C@H](CO)[C@@H]1O [[3S] βGal] — what was its Signal value, Clec10a-Fc?
stdout: 3

src = patent US12617837B2
